# Bliss excess per record follows
System: LOU-NH91 (Squamous Cell Lung Carcinoma);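 further: after 72 h of two-drug dosing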
Assay: Bliss excess, mean over the matrix (fraction); higher = more synergy
ENDPOINT: Bliss excess

>  <COMPOUND>
CC1(C)CCC(CN2CCN(c3ccc(C(=O)NS(=O)(=O)c4ccc(NCC5CCOCC5)c([N+](=O)[O-])c4)c(Oc4cnc5[nH]ccc5c4)c3)CC2)=C(c2ccc(Cl)cc2)C1 [Venetoclax] + COc1cc(Nc2ncc3c(n2)-c2ccc(Cl)cc2C(c2c(F)cccc2OC)=NC3)ccc1C(=O)O [Alisertib] (first compound max 1 µM, 7x7, partner max 10 µM)

>  <NUMERIC READOUT>
-0.0026

$$$$
>  <COMPOUND>
Cc1c2c(nn1C)CSCc1cc(n(C)n1)CSc1cc(c3ccccc3c1)OCCCc1c(C(=O)O)n(C)c3c-2c(Cl)ccc13 [AZD5991] + Cn1cnc2c(F)c(Nc3ccc(Br)cc3Cl)c(C(=O)NOCCO)cc21 [Selumetinib] (first compound max 1 µM, 7x7, partner max 3 µM)

>  <NUMERIC READOUT>
-0.025

$$$$
